target: UniProtKB P49137; assay: MK2 degradation in human SW1353 cells (MSD, 24 h); format: cell-based; set-up: endogenous in cells; host or cells: SW-1353 (ATCC HTB-94); settings: read-out: MK2 MSD SW 1353 24 h Dmax %
quantity measured: Dmax

Prompt line: Report Dmax for C[C@@H]1CNc2c(sc3ccc4nc(-c5ccc(C#CCCNC(=O)CCCCCCCCCc6ccc7c(c6)n(C)c(=O)n7C6CCC(=O)NC6=O)cc5)ccc4c23)C(=O)N1 (stereo partly drawn) please.
Response line: > 75%

Prompt line: Report Dmax for Cn1c(=O)n(C2CCC(=O)NC2=O)c2ccc(N3CCC(CN4CCN(c5ccc(-c6cc(-c7cc8c([nH]7)C7(CCC7)CNC8=O)ccn6)cn5)CC4)CC3)cc21 (stereo not drawn) please.
Response line: > 75%

Prompt line: Report Dmax for O=C1CCC(N2Cc3cc(N4CCN(CC5CCN(c6ccc(F)c(-c7cc(-c8cc9c([nH]8)CCNC9=O)ccn7)c6)CC5)CC4)ccc3C2=O)C(=O)N1 (stereo not drawn) please.
Response line: < 50%

###

Give Dmax for every item shown.
target: UniProt P49137; experiment: MK2 degradation in human THP-1 monocytic cells (MSD, 24 h); format: cell-based; parameters: endogenous in cells; settings: THP-1, THP-1 cells

Prompt line: Report Dmax for Cn1c(=O)n(C2CCC(=O)NC2=O)c2cccc(CCCCN3CC4(CCN(c5ccc6c(c5)Cn5cc(-c7ccc(F)cc7)cc5-c5nccn5-6)C4)C3)c21 (centres unmarked) please.
Response line: < 50%

Prompt line: Report Dmax for Cn1c(=O)n(C2CCC(=O)NC2=O)c2ccc(N3CCC(CN4CCN(c5cc(C#N)cc(-c6cc(-c7cc8c([nH]7)CCNC8=O)ccn6)c5)CC4)CC3)cc21 (centres unmarked) please.
Response line: < 50%

Prompt line: Report Dmax for CN1CC2(CNC(=O)c3c2[nH]c2c3CCc3cnc(-c4ccc(CN5CCC(OCC#Cc6cccc7c6n(C)c(=O)n7C6CCC(=O)NC6=O)CC5)cc4F)cc3-2)C1 (centres unmarked) please.
Response line: < 50%

Prompt line: Report Dmax for Cc1cc(N2CCN(CCCc3ccc4c(c3)n(C)c(=O)n4C3CCC(=O)NC3=O)CC2)ccc1-c1ccc2c(ccc3sc4c(c32)NC[C@@H](C)NC4=O)n1 (some centres unmarked) please.
Response line: 50 to 75%

Prompt line: Report Dmax for C[C@@H]1CNc2c(sc3ccc4nc(-c5ccc(N6CCN(CCCc7ccc8c(c7)n(C)c(=O)n8C7CCC(=O)NC7=O)CC6)cc5F)ccc4c23)C(=O)N1 (some centres unmarked) please.
Response line: > 75%

###

Give DC50 for every item shown.
Target: MK2 (Homo sapiens, UniProt P49137)
Sequence (P49137 whole entry): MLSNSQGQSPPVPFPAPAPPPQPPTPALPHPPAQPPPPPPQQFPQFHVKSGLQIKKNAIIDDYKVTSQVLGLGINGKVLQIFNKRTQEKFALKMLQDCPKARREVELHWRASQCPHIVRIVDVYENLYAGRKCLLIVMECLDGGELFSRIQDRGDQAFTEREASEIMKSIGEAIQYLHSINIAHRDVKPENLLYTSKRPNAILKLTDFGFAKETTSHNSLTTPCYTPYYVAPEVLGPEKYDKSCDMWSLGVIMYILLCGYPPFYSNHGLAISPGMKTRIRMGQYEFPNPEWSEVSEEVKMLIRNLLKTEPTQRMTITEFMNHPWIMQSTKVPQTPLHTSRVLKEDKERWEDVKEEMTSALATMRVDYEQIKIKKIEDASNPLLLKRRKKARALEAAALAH
Assay: MK2 degradation in human SW1353 cells (MSD, 24 h)
Type: cell-based
Parameters: endogenous in cells; host or cells: SW-1353 (ATCC HTB-94)
Settings: read-out: MK2 MSD SW1353 degradation 24 h GMean External Abs DC50
Protocol: MK2 Degradation in Human SW1353 Cells […] After 3 more washes, the secondary detection antibody (SULFO-Tag anti rabbit antibody R32AB-5) was added at a final concentration of 1 microgram per ml at 25 microlitres per well and shaken at room temperature for 1 hour at 600 rpm. After 3 more washes, the 1×MSD (diluted from 5× concentrate with water) reading buffer was added at 150 microlitres per well and read on the MSD instrument Meso Sector S 600. […]

Prompt line: Report DC50 for Cn1c(=O)n(C2CCC(=O)NC2=O)c2cccc(CCCCCCN3CCC4(CC3)CNC(=O)c3c4[nH]c4c3CCc3cnc(-c5ccccc5F)cc3-4)c21 (centres unmarked) [Compound I-300] please.
Response line: > 100 nM

Prompt line: Report DC50 for CN1CC2(CNC(=O)c3c2[nH]c2c3CCc3cnc(-c4ccc(CN5CCC(OCC#Cc6cccc7c6n(C)c(=O)n7C6CCC(=O)NC6=O)CC5)cc4F)cc3-2)C1 (centres unmarked) [Compound I-2] please.
Response line: > 100 nM

Prompt line: Report DC50 for C[C@@H]1CNc2c(sc3ccc4nc(-c5ccc(N6CCN(CC7CCN(c8ccc(C9CCC(=O)NC9=O)cc8)CC7)CC6)nc5)ccc4c23)C(=O)N1 (some centres unmarked) [Compound I-421] please.
Response line: 1 to 10 nM

Prompt line: Report DC50 for C[C@@H]1CNc2c(sc3ccc4nc(-c5ccc(N6CCC(CN7CCN(c8cccc9c8n(C)c(=O)n9C8CCC(=O)NC8=O)CC7)CC6)cc5F)ccc4c23)C(=O)N1 (some centres unmarked) [Compound I-307] please.
Response line: 1 to 10 nM

Prompt line: Report DC50 for C[C@@H]1CNc2c(sc3ccc4nc(-c5ccnc(N6CCN(CCCc7ccc8c(c7)n(C)c(=O)n8C7CCC(=O)NC7=O)CC6)c5)ccc4c23)C(=O)N1 (some centres unmarked) [Compound I-275] please.
Response line: < 1 nM

Prompt line: Report DC50 for Cn1c(=O)n(C2CCC(=O)NC2=O)c2cccc(CCCN3CCN(c4ccc(-c5cc(-c6cc7c([nH]6)C6(CCCC6)CNC7=O)ccn5)cc4)CC3)c21 (centres unmarked) [Compound I-191] please.
Response line: 1 to 10 nM

Prompt line: Report DC50 for C[C@@H]1CNc2c(sc3ccc4nc(-c5cc(N6CCN(CCCCCCCCc7cccc8c7n(C)c(=O)n8C7CCC(=O)NC7=O)CC6)ccc5F)ccc4c23)C(=O)N1 (some centres unmarked) [Compound I-286] please.
Response line: 10 to 100 nM

Prompt line: Report DC50 for C[C@@H]1CNc2c(sc3ccc4nc(-c5ccc(N6CCN(CC7CCN(c8ccc9c(c8)n(C)c(=O)n9C8CCC(=O)NC8=O)CC7)CC6)cc5)ccc4c23)C(=O)N1 (some centres unmarked) [Compound I-130] please.
Response line: < 1 nM

Prompt line: Report DC50 for C[C@@H]1CNc2c(sc3ccc4nc(-c5cccc(N6CCN(CCCCCCCCc7ccc8c(c7)n(C)c(=O)n8C7CCC(=O)NC7=O)CC6)c5)ccc4c23)C(=O)N1 (some centres unmarked) [Compound I-176] please.
Response line: 1 to 10 nM

Prompt line: Report DC50 for C[C@@H]1CNc2c(sc3ccc4nc(-c5ccc(N6CCN(CCCc7cccc8c7n(C)c(=O)n8C7CCC(=O)NC7=O)CC6)nc5)ccc4c23)C(=O)N1 (some centres unmarked) [Compound I-288] please.
Response line: < 1 nM

Prompt line: Report DC50 for C[C@@H]1CNc2c(sc3ccc4nc(N5CC6(CCN(CC7CCN(c8ccc9c(c8)n(C)c(=O)n9C8CCC(=O)NC8=O)CC7)CC6)C5)ccc4c23)C(=O)N1 (some centres unmarked) [Compound I-390] please.
Response line: > 100 nM

###

Give DC50 for every item shown.
molecular target: MK2 (Homo sapiens); test: MK2 degradation in human SW1353 cells (MSD, 24 h); type: cell-based; design: endogenous in cells; host or cells: SW-1353 (ATCC HTB-94); conditions: read-out: MK2 MSD SW1353 degradation 24 h GMean External Abs DC50

Prompt line: Report DC50 for Cn1c(=O)n(C2CCC(=O)NC2=O)c2cccc(CCCCCCCN3CCN(c4ccc(F)c(-c5cc(-c6cc7c([nH]6)CCNC7=O)ccn5)c4)CC3)c21 (centres unmarked) please.
Response line: > 100 nM

Prompt line: Report DC50 for C[C@@H]1CNc2c(sc3ccc4nc(-c5ccc(N6CCN(CC7CN(c8ccc9c(c8)n(C)c(=O)n9C8CCC(=O)NC8=O)C7)CC6)cc5F)ccc4c23)C(=O)N1 (some centres unmarked) please.
Response line: < 1 nM

Prompt line: Report DC50 for C[C@@H]1CNc2c(sc3ccc4nc(-c5ccc(N6CCN(CC7CN(c8ccc9c(c8)n(C)c(=O)n9C8CCC(=O)NC8=O)C7)CC6)cc5Cl)ccc4c23)C(=O)N1 (some centres unmarked) please.
Response line: < 1 nM

Prompt line: Report DC50 for C[C@@H]1CNc2c(sc3ccc4nc(-c5cccc(N6CCC(CN7CCC(c8cccc9c(N%10CCC(=O)NC%10=O)cncc89)CC7)CC6)c5)ccc4c23)C(=O)N1 please.
Response line: 1 to 10 nM

Prompt line: Report DC50 for Cn1c(=O)n(C2CCC(=O)NC2=O)c2ccc(N3CCC(CN4CCN(c5ccc(-c6cc(-c7cc8c([nH]7)C7(CC7)CNC8=O)ccn6)cc5)CC4)CC3)cc21 (centres unmarked) please.
Response line: < 1 nM

###

biological target: MK2 (Homo sapiens, UniProt P49137); experiment: MK2 degradation in human THP-1 monocytic cells (MSD, 24 h); assay type: cell-based; parameters: endogenous in cells; details: THP-1 cells, read-out: MK2 MSD THP-1 degradation 24 h GMean External Abs DC50
quantity measured: DC50

Prompt line: Report DC50 for C[C@@H]1CNc2c(sc3ccc4nc(-c5ccc(CNC(=O)CCCCCCCc6ccc7c(c6)n(C)c(=O)n7C6CCC(=O)NC6=O)cc5)ccc4c23)C(=O)N1 (some centres unmarked) please.
Response line: 1 to 10 nM

Prompt line: Report DC50 for C[C@@H]1CNc2c(sc3ccc4nc(-c5cc(Cl)cc(N6CCN(CC7CCN(c8ccc9c(c8)n(C)c(=O)n9C8CCC(=O)NC8=O)CC7)CC6)c5)ccc4c23)C(=O)N1 (some centres unmarked) please.
Response line: < 1 nM

Prompt line: Report DC50 for C[C@@H]1CNc2c(sc3ccc4nc(-c5ccc(CNC(=O)COCCOCCOCCOCCc6cccc7c6n(C)c(=O)n7C6CCC(=O)NC6=O)cc5)ccc4c23)C(=O)N1 (some centres unmarked) please.
Response line: 1 to 10 nM

Prompt line: Report DC50 for C[C@@H]1CNc2c(sc3ccc4nc(N5CCC(N6CC7(CCN(c8ccc9c(c8)n(C)c(=O)n9C8CCC(=O)NC8=O)CC7)C6)CC5)ccc4c23)C(=O)N1 (some centres unmarked) please.
Response line: < 1 nM

Prompt line: Report DC50 for C[C@@H]1CNc2c(sc3ccc4nc(-c5cc(N6CCN(CC7CCN(c8ccc9c(c8)n(C)c(=O)n9C8CCC(=O)NC8=O)CC7)CC6)nc(C(C)(C)O)c5)ccc4c23)C(=O)N1 (some centres unmarked) please.
Response line: > 100 nM
